test: SU-DIPG-VI glioma cell viability, MIPE4.0 library, CellTiter-Glo luminescence, qHTS (AID 1347066); conditions: CellTiter-Glo ATP luminescence;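 note: cells exposed to compound for 48 hours before readout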
Results filed as inconclusive are left out. Calls of active or inactive are those of the source. No cut-off is given here; in the data, nearly all actives have AC50 up to about 30 µM.
Log the outcome using a class from yes for active, no for inactive

*Q* State the result this test recorded for C[C@H](CCC(=O)O)[C@H]1CC[C@H]2[C@@H]3[C@@H](O)C[C@@H]4C[C@H](O)CC[C@]4(C)[C@H]3CC[C@]12C .
*A* no

*Q* State the result this test recorded for O=C(Nc1cc(C(F)(F)F)cc(C(F)(F)F)c1)c1cc(Cl)ccc1O .
*A* yes

*Q* State the result this test recorded for COC(=O)C1=C(C)NC(C)=C(C(=O)OCCN2CCN(C(c3ccccc3)c3ccccc3)CC2)C1c1cccc([N+](=O)[O-])c1 (stereo not drawn) .
*A* no

*Q* State the result this test recorded for NC[C@H]1O[C@H](O[C@H]2[C@H](O)[C@@H](O[C@H]3O[C@H](CO)[C@@H](O)[C@H](N)[C@H]3O)[C@H](N)C[C@@H]2N)[C@H](N)C[C@@H]1O .
*A* no

*Q* State the result this test recorded for COC(=O)[C@@H]1CC2=CC(=O)CC[C@]2(C)[C@@]23O[C@@H]2C[C@@]2(C)[C@@H](CC[C@@]24CCC(=O)O4)[C@H]13 .
*A* no

*Q* State the result this test recorded for O=P(O)(O)C(O)(Cn1ccnc1)P(=O)(O)O .
*A* no

*Q* State the result this test recorded for CC(C)(C)NCC(O)c1ccc(O)c(CO)c1 (stereo not drawn) .
*A* no

*Q* State the result this test recorded for COc1c(C)c2c(c(O)c1C/C=C(\C)CCC(=O)OCCN1CCOCC1)C(=O)OC2 .
*A* no
